# Test system: L1210 leukemia ip in BDF1 mice, survival T/C
# TEST: NCI In Vivo Anticancer Drug Screen. Data for tumor model L1210 Leukemia (intraperitoneal) in B6D2F1 (BDF1) mice
# ASSAY SETUP: endpoint: mean survival time; dose: 200.0 mg/kg/injection; schedule: Q01DX009 (ip); vehicle: saline; higher = longer survival
Inconclusive results and toxic doses are left out. Square brackets hold non-standard residues; d marks the D form. Peptide text beside a SMILES is read from it. * marks the point of attachment. ξ: configuration not given here. Tos = Cc1ccc(S(=O)(=O)*)cc1; ξS = NC(CO)C(=O)O
READOUT: T/C

Using the record for `Cc1[nH]c(=O)[nH]c(=O)c1/C=C/C(=O)O` , report its T/C.
102 % of control

What do you have for CNC(=O)C(C)C1C(=O)/C(=C(O)/C=C/C(C)=C\C(C)C2OC3(C)OC(C=CC34CO4)C2C)C(=O)N1C1CCC(O)C(C)O1 (stereo not drawn) ?
101 % of control

What do you have for `NCCOc1ccc([N+](=O)[O-])cc1Cl` ?
96 % of control

What do you have for `CNC(=O)N(C)Cc1ccccc1` ?
115 % of control

What do you have for `Cc1cc(C(C)(C)c2ccc(O)c(C)c2)ccc1O` ?
94 % of control

What do you have for Cc1ccc(S(=O)(=O)NC(CO)C(=O)NCC(=O)O)cc1 (stereo not drawn) (Tos-[ξS]-Gly-OH) ?
97 % of control

What do you have for `O=C(O)Cn1nnc2ccccc21` ?
94 % of control

What do you have for `Cc1cc(N=[N+]([O-])c2ccc(N)c(C)c2)ccc1N` ?
96 % of control

====

# Tested on: L1210 leukemia ip in BDF1 mice, survival T/C
# TEST: NCI In Vivo Anticancer Drug Screen. Data for tumor model L1210 Leukemia (intraperitoneal) in B6D2F1 (BDF1) mice
# ASSAY SETUP: endpoint: mean survival time; dose: 100.0 mg/kg/injection; schedule: Q04DX002 (ip); vehicle: saline with Tween-80; higher = longer survival
Inconclusive results and toxic doses are left out.
READOUT: T/C

Reference set (3 entries):
| COMPOUND | T/C |
| --- | --- |
| CCOC(=O)C1Oc2ccccc2O1 | 113 % of control |
| CC(C)(O)S(=O)(=O)O | 95 % of control |
| S=C(NC1CCCCC1)NC1CC2C=CC1C2 (stereo not given) | 90 % of control |

Using the record for `CC#CCCC(=O)OCCC` , report its T/C.
121 % of control

What do you have for CC(C)C(N)(CCN1CCOCC1)c1cccc2ccccc12 (stereo not given) ?
88 % of control

What do you have for `O=C1/C(=C/c2ccccc2)CCC/C1=C\c1ccccc1` ?
92 % of control

What do you have for `NS(=O)(=O)c1ccc(N=NN2CCOCC2)cc1` ?
115 % of control

====

T/C values for the compounds below.
# System: L1210 leukemia ip in BDF1 mice, survival T/C
# TEST: NCI In Vivo Anticancer Drug Screen. Data for tumor model L1210 Leukemia (intraperitoneal) in B6D2F1 (BDF1) mice
# ASSAY SETUP: endpoint: mean survival time; dose: 200.0 mg/kg/injection; schedule: Q01DX001 (ip); vehicle: carboxymethylcellulose (CMC); higher = longer survival
Toxic doses and inconclusive results are not listed.

Reference set (8 entries):
| COMPOUND | T/C |
| --- | --- |
| COC(=O)CC(Br)CBr (stereo not drawn) | 100 % of control |
| O=C(Nc1cccc(Cl)c1)Nc1ccc(Br)c(C(F)(F)F)c1 | 96 % of control |
| CC(C)(C)CC(C)(C)c1ccc(O)cc1 | 100 % of control |
| O=C(Nc1nccs1)Nc1cc(C(F)(F)F)ccc1Cl | 98 % of control |
| CC1=NN(c2ccccc2)C(=O)C1N=Nc1ccc(S(=O)(=O)Nc2cc(C)nc(C)n2)cc1 (stereo not drawn) | 98 % of control |
| c1ccc2c(c1)nc1n2CCC1 | 98 % of control |
| OC1c2ccccc2C(O)C2C3C=CC(C3)C12 (stereo not drawn) | 100 % of control |
| O=C(O)c1c(O)cc(=O)oc1-c1ccc(Cl)cc1 | 92 % of control |

// moving on: another record for T/C
Using the record for O=c1[nH]c(=O)n(C2CCCO2)cc1I (stereo not drawn) , report its T/C.
98 % of control

====

# System: L1210 leukemia ip in BDF1 mice, survival T/C
# TEST: NCI In Vivo Anticancer Drug Screen. Data for tumor model L1210 Leukemia (intraperitoneal) in B6D2F1 (BDF1) mice
# ASSAY SETUP: endpoint: mean survival time; dose: 75.0 mg/kg/injection; schedule: Q01DX001 (ip); vehicle: Klucel (hydroxypropylcellulose) (HPC); higher = longer survival
Inconclusive results and toxic doses are left out.
READOUT: T/C

Using the record for `Cc1ccc(OC/C=C/CSc2ccc(Br)cc2)cc1` , report its T/C.
106 % of control

What do you have for `C=C1c2c(Cl)cccc2C(C)(CC)c2cccc(Cl)c21` ?
96 % of control

What do you have for OC1C2c3ccccc3C(c3c2cc(F)c2ccccc32)C1O (centres undefined) ?
96 % of control

What do you have for `Cc1ccccc1N=Nc1c(O)n(-c2ccc(Br)cc2)c(=S)n(-c2ccccc2)c1=O` ?
101 % of control

====

# Test system: L1210 leukemia ip in BDF1 mice, survival T/C
# TEST: NCI In Vivo Anticancer Drug Screen. Data for tumor model L1210 Leukemia (intraperitoneal) in B6D2F1 (BDF1) mice
# ASSAY SETUP: endpoint: mean survival time; dose: 12.5 mg/kg/injection; schedule: Q01DX009 (ip); vehicle: saline
Inconclusive results and toxic doses are left out. Cut-off read from the data, not from the text of the source: active = T/C of 150% or more; inactive = T/C below 125%.
Pick one: t = active, f = inactive

Here's what some known entries look like.
| MOLECULE | GROUP |
| --- | --- |
| O=C(NCCCN1CCN(CCCNC(=O)c2cccnc2)CC1)c1cccnc1 | f |
| CC(=O)OC(CC(=O)CC(O)(C(F)(F)F)C(F)(F)F)(C(F)(F)F)C(F)(F)F | f |
| FC(F)(F)c1ccc2c(c1)N(CCCN1CCN(CCCl)CC1)c1ccccc1S2 | f |
| NC(CO)CSCc1ccccc1 (stereo not given) | f |
| CC(C)=CCC(OC(=O)C=C(C)C)C1=CC(=O)c2c(O)ccc(O)c2C1=O (stereo not given) | f |
| FCCCC1CCCCN1 (stereo not given) | f |

Hi, do you know how `CN(C)CC(C)(C)CN1c2ccccc2Sc2ccccc21` came out in this test?
f

What do you have for CC(Cc1ccccc1)NCCn1cnc2c1c(=O)n(C)c(=O)n2C (stereo not given) ?
f

What do you have for O=[N+]([O-])c1ccc(C[Se]c2ncnc3c2ncn3C2OC(CO)C(O)C2O)cc1 (stereo not given) ?
f

What do you have for `C[n+]1ccc(Nc2ccc(NC(=O)c3ccc(Nc4cc[n+](C)c5ccc(N)cc45)cc3N)cc2)cc1` ?
t

====

T/C values for the compounds below.
# Test system: L1210 leukemia ip in BDF1 mice, survival T/C
# TEST: NCI In Vivo Anticancer Drug Screen. Data for tumor model L1210 Leukemia (intraperitoneal) in B6D2F1 (BDF1) mice
# ASSAY SETUP: endpoint: mean survival time; dose: 200.0 mg/kg/injection; schedule: Q04DX003 (ip); vehicle: saline with Tween-80; higher = longer survival
Toxic doses and inconclusive results are not listed.

| COMPOUND | TEST SYSTEM | T/C |
| --- | --- | --- |
| O=C(CN1CCOCC1)Nc1ccc(S(=O)(=O)c2ccc(Cl)cc2)cc1 | L1210 leukemia ip in BDF1 mice, survival T/C | 101 % of control |
| CN(C)c1ccc(C(=O)c2ccc(N(C)C)cc2)cc1 | L1210 leukemia ip in BDF1 mice, survival T/C | 88 % of control |
| c1ccc(CNCCNCCNCc2ccccc2)cc1 | L1210 leukemia ip in BDF1 mice, survival T/C | 98 % of control |
| C/C(=C1/c2ccccc2-c2n[nH]c(C)c21)S(=O)(=O)O | L1210 leukemia ip in BDF1 mice, survival T/C | 105 % of control |
| O=P1(Cc2ccccc2)CCC(O)=C1c1ccccc1 (stereo unspecified) | L1210 leukemia ip in BDF1 mice, survival T/C | 102 % of control |
| O=C1C=C(C(Cl)(Cl)Cl)OC(=O)C1 | L1210 leukemia ip in BDF1 mice, survival T/C | 98 % of control |

Using the record for `CC(C)C(=O)Nc1ccc(S(=O)(=O)NCCO)cc1` , report its T/C.
92 % of control

What do you have for C=CCC(O)CCC (stereo unspecified) ?
100 % of control

====

# Test system: L1210 leukemia ip in BDF1 mice, survival T/C
# TEST: NCI In Vivo Anticancer Drug Screen. Data for tumor model L1210 Leukemia (intraperitoneal) in B6D2F1 (BDF1) mice
# ASSAY SETUP: endpoint: mean survival time; dose: 400.0 mg/kg/injection; schedule: Q04DX003 (ip); vehicle: saline with Tween-80; higher = longer survival
Inconclusive results and toxic doses are left out.
READOUT: T/C

Reference set (6 entries):
| COMPOUND | T/C |
| --- | --- |
| O=C(/C=C\c1ccc2c(c1)OCO2)/C=C/c1ccc2c(c1)OCO2 | 90 % of control |
| Nc1ncc(Br)cn1 | 102 % of control |
| Cc1ccc(S(=O)(=O)/C=C(/I)c2ccccc2)cc1 | 104 % of control |
| O=C(NC(=S)Nc1ccc(Br)cc1)c1ccc(Cl)cc1Cl | 93 % of control |
| Nc1nc(CNc2ccc(Cl)cc2)nc(Nc2ccc(Cl)cc2)n1 | 95 % of control |
| Cc1ccc(N=C(N)NC#N)cc1C | 102 % of control |

Using the record for O=C(NCC(S)c1ccc(Cl)cc1)C(F)(F)F (configuration not stated) , report its T/C.
86 % of control
